system: T1, phosphorylated Rab10 in lysates of HEK cells overexpressing LRRK2 (Homo sapiens, UniProt P61026)
T1 construct: expressed in transfected cells; host or cells: HEK cells overexpressing LRRK2
T1 sequence (P61026 1-200): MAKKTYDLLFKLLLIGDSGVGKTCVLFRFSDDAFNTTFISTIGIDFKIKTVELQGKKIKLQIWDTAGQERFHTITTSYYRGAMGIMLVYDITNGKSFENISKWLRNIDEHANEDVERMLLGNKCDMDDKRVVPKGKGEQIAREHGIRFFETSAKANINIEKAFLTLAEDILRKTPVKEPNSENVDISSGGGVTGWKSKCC
assay: Sandwich ELISA (diagnostic), HEK cells overexpressing LRRK2
Format: binding
condition-parameters: DMSO treated cells
readout-name: Sandwich ELISA (diagnostic) HEK cells overexpressing LRRK2, DMSO (RLU mean ± SD) (RLU)
Record the value in RLU, omitting the unit from your answer.

Exam item: Given Clone 256-6: anti-phosphorylated (pT73) Rab10 rabbit monoclonal antibody; VH SEQ ID NO:53, VL SEQ ID NO:56 (antibody, V domains shown) VH: METGLRWLLLVAVLKGVQCQSVEESGGRLVTPGTPLTLTCTVSGFSLSNYAMVWVRQAPGKGLEYIGLISRSGVTYYATWAKGRFTISKASTTVDLKIASPTTGDTATYFCVRDYDANGWSGFTIWGPGTLVTVSA VL: MDTRAPTQLLGLLLLWLPGAICDPVMTQTPSSTSAAVGGTVTINCQSSQSVYGNNYLSWYQQKPGQPPKLLIYKASTLASGVPSRFKGSGSGTQFTLTISDLDCDDAATYYCAGAASDTRFFGGGTEVVVK , state its recorded Sandwich ELISA (diagnostic) HEK cells overexpressing LRRK2, DMSO (RLU mean ± SD).
Marked response: 212085
